tested on: coxsackievirus type A7 (CA7); assay: In vitro anti-picornavirus activity (MTT), CA7; format: cell-based; conditions: Coxsackievirus; HeLa-S3 cells, MTT method, 37° C.
Would you mind telling me the reported IC50 of each entry?
Quick note: give the figure in µg/mL, leave out the unit.

Input: Report IC50 for `CCn1c(-c2ccccc2)c(C)c(=O)c2cc(C(C)C)ccc21` please.
Output: 3.8

Input: Report IC50 for `CCn1c2c(c(=O)c3cc(C(C)C)ccc31)Cc1ccccc1-2` please.
Output: 3.1

Input: Report IC50 for `CCn1c2c(c(=O)c3cc(C(C)C)ccc31)Cc1cc(C)sc1-2` please.
Output: 1.1

Input: Report IC50 for `CCn1c(-c2ccc(OC)c(C)c2)c(C)c(=O)c2c(C)c(OCC(C)C)ccc21` please.
Output: 2.5

Input: Report IC50 for `CCn1c(-c2ccco2)cc(=O)c2cc(C(C)C)ccc21` please.
Output: 3.6

Input: Report IC50 for `CCn1c2c(c(=O)c3cc(C(C)C)ccc31)Cc1ccsc1-2` please.
Output: 1.9

====

tested on: HRV16 (11757); assay: Anti-rhinovirus spectrum (MTT), HRV16; format: cell-based, human rhinovirus; set-up: unit not given here; details: HRV16
Would you mind telling me the reported Anti-Rhinovirus activity, HRV16 of each entry?
Give the figure by itself; no unit, no explanation.

Input: Report Anti-Rhinovirus activity, HRV16 for CCn1c2c(c(=O)c3cc(CC(C)C)ccc31)Cc1cc(OC)ccc1-2 [Compound B12] please.
Output: 1.4

Input: Report Anti-Rhinovirus activity, HRV16 for `CCn1c2c(c(=O)c3c(C(C)C)c(OC)ccc31)Cc1ccccc1-2` please.
Output: 0.98

Input: Report Anti-Rhinovirus activity, HRV16 for `CCn1c2c(c(=O)c3cc(C(C)C)ccc31)Cc1cc(OC)ccc1-2` please.
Output: 0.57

Input: Report Anti-Rhinovirus activity, HRV16 for `CCn1c2c(c(=O)c3cc(C(C)C)ccc31)Cc1cc(OC)c(C)cc1-2` please.
Output: 0.44

Input: Report Anti-Rhinovirus activity, HRV16 for `CCn1c2c(c(=O)c3cc(C(C)C)ccc31)Cc1ccccc1-2.Cl` please.
Output: 2.3

Input: Report Anti-Rhinovirus activity, HRV16 for CCn1c2c(c(=O)c3cc(CC(C)C)ccc31)Cc1cc(OC)ccc1-2 [Compound B15] please.
Output: 1.2

Input: Report Anti-Rhinovirus activity, HRV16 for `CCc1ccc2c(c1)Cc1c-2n(CC)c2ccc(C(C)C)cc2c1=O` please.
Output: 0.47

Input: Report Anti-Rhinovirus activity, HRV16 for `CCn1c2c(c(=O)c3cc(C(C)C)ccc31)Cc1cc(OC)c(OC)cc1-2` please.
Output: 1.2

====

tested on: HeLa cells; experiment: Cytotoxicity (MTT, without virus), HeLa; conditions: HeLa, no virus, incubated for 4 days
measured_quantity: Cytotoxicity CC50 HeLa

Input: Report Cytotoxicity CC50 HeLa for COc1c(OCC(C)C)ccc2c1c(=O)c(C)c(-c1ccccc1)n2C [Compound A196] please.
Output: >10 µg/mL

Input: Report Cytotoxicity CC50 HeLa for CCCOc1ccc2c(c1)c(=O)c(C)c(-c1ccccc1)n2CC [Compound A32] please.
Output: 9.7 µg/mL

Input: Report Cytotoxicity CC50 HeLa for CC(C)c1ccc2c(c1)c(=O)cc(-c1ccc(Cl)c(Cl)c1)n2C [Compound A61] please.
Output: >4 µg/mL

Input: Report Cytotoxicity CC50 HeLa for CCn1c(-c2ccc(C)s2)cc(=O)c2cc(C(C)C)ccc21 [Compound A315] please.
Output: 7.1 µg/mL

Input: Report Cytotoxicity CC50 HeLa for CCn1c(-c2cccc(F)c2)c(C)c(=O)c2cc(C(C)C)ccc21 [Compound A60] please.
Output: 5.3 µg/mL

Input: Report Cytotoxicity CC50 HeLa for CCOc1ccc(-c2cc(=O)c3cc(C(C)C)ccc3n2C)cc1C [Compound A99] please.
Output: 5.4 µg/mL

Input: Report Cytotoxicity CC50 HeLa for Cc1cc2c(cc1OCC(C)C)c(=O)c(C)c(-c1ccccc1)n2C [Compound A234] please.
Output: >5 µg/mL

Input: Report Cytotoxicity CC50 HeLa for Cc1c(-c2ccccc2)n(C)c2cc(C(C)C)c(OC(C)C)cc2c1=O [Compound A258] please.
Output: 4.5 µg/mL

Input: Report Cytotoxicity CC50 HeLa for CCn1c(-c2cccs2)c(C)c(=O)c2cc(C(C)C)ccc21 [Compound A311] please.
Output: 6.8 µg/mL

Input: Report Cytotoxicity CC50 HeLa for Cc1cc2c(c(C)c1OCC(C)C)c(=O)c(C)c(-c1ccccc1)n2C [Compound A286] please.
Output: >5 µg/mL

Input: Report Cytotoxicity CC50 HeLa for CCn1c(-c2ccn(C)c2)cc(=O)c2cc(C(C)C)ccc21 [Compound A307] please.
Output: >20 µg/mL

Input: Report Cytotoxicity CC50 HeLa for CCn1c(-c2ccc(Br)s2)cc(=O)c2cc(C(C)C)ccc21 [Compound A317] please.
Output: >5 µg/mL

Input: Report Cytotoxicity CC50 HeLa for Cc1ccc(-c2cc(=O)c3cc(C(C)C)ccc3n2C)s1 [Compound A314] please.
Output: 7.0 µg/mL

Input: Report Cytotoxicity CC50 HeLa for CC(C)c1ccc2c(c1)c(=O)cc(-c1ccc(Br)s1)n2C [Compound A316] please.
Output: >5 µg/mL

Input: Report Cytotoxicity CC50 HeLa for CCn1c(-c2ccccc2)c(C)c(=O)c2cc(N3CCOCC3)ccc21 [Compound A169] please.
Output: >50 µg/mL

Input: Report Cytotoxicity CC50 HeLa for CCc1ccc2c(c1)Cc1c-2n(CC)c2ccc(C(C)C)cc2c1=O [Compound B9] please.
Output: >1 µg/mL

Input: Report Cytotoxicity CC50 HeLa for CCn1c(-c2nccs2)cc(=O)c2cc(C(C)C)ccc21 [Compound A319] please.
Output: 35 µg/mL

Input: Report Cytotoxicity CC50 HeLa for CCn1c(-c2ccccc2)c(C)c(=O)c2cc(NCC(C)C)ccc21.O [Compound A159] please.
Output: >5 µg/mL

Input: Report Cytotoxicity CC50 HeLa for CCn1c(-c2ccccc2)c(C)c(=O)c2c(C)c(OCC(C)C)ccc21 [Compound A188] please.
Output: >5 µg/mL

Input: Report Cytotoxicity CC50 HeLa for COc1ccc(-c2c(C)c(=O)c3cc(C(C)C)ccc3n2C)cc1 [Compound A81] please.
Output: 6.5 µg/mL

Input: Report Cytotoxicity CC50 HeLa for Cc1c(-c2ccccc2)n(-c2ccc(F)cc2)c2ccc(C(C)C)cc2c1=O [Compound A323] please.
Output: >2 µg/mL

Input: Report Cytotoxicity CC50 HeLa for COc1ccc2c(c1)Cc1c-2n(C)c2ccc(CC(C)C)cc2c1=O [Compound B11] please.
Output: >2 µg/mL

Input: Report Cytotoxicity CC50 HeLa for CCCc1ccc2c(c1)c(=O)c(C)c(-c1ccccc1)n2CC [Compound A30] please.
Output: 6.0 µg/mL

Input: Report Cytotoxicity CC50 HeLa for CCn1c(-c2ccccc2)c(C)c(=O)c2cc(-c3ccccc3)ccc21 [Compound A171] please.
Output: >2.5 µg/mL

Input: Report Cytotoxicity CC50 HeLa for CCn1c2c(c(=O)c3c(C(C)C)c(OC)ccc31)Cc1ccccc1-2 [Compound B7] please.
Output: >2.5 µg/mL

Input: Report Cytotoxicity CC50 HeLa for CCn1c2c(c(=O)c3cc(C(C)C)ccc31)Cc1cc(OC)c(C)cc1-2 [Compound B20] please.
Output: >2.5 µg/mL

Input: Report Cytotoxicity CC50 HeLa for CCn1c(-c2ccccc2)c(C)c(=O)c2cc(OCC(C)C)ccc21 [Compound A130] please.
Output: >4 µg/mL

Input: Report Cytotoxicity CC50 HeLa for COc1ccc(-c2cc(=O)c3cc(C(C)C)ccc3n2C)cc1C [Compound A97] please.
Output: 5.1 µg/mL

Input: Report Cytotoxicity CC50 HeLa for Cc1cc(-c2cc(=O)c3cc(C(C)C)ccc3n2C)ccc1OC(C)C [Compound A100] please.
Output: >5 µg/mL

Input: Report Cytotoxicity CC50 HeLa for CCn1c2c(c(=O)c3cc(C(C)C)ccc31)Cc1cc(OC)ccc1-2 [Compound B10] please.
Output: >2.5 µg/mL

Input: Report Cytotoxicity CC50 HeLa for CCn1c(-c2ccc(OC)c(C)c2)cc(=O)c2cc(C(C)C)ccc21 [Compound A98] please.
Output: >4 µg/mL

Input: Report Cytotoxicity CC50 HeLa for CC(C)c1ccc2c(c1)c(=O)cc(-c1cccs1)n2C [Compound A308] please.
Output: 11 µg/mL

Input: Report Cytotoxicity CC50 HeLa for COc1cc2c(=O)c(C)c(-c3ccccc3)n(C)c2cc1C(C)C [Compound A226] please.
Output: >10 µg/mL

Input: Report Cytotoxicity CC50 HeLa for COc1ccc(-c2c(C)c(=O)c3c(C)c(OCC(C)C)ccc3n2C)cc1C [Compound A190] please.
Output: >4 µg/mL

Input: Report Cytotoxicity CC50 HeLa for CCn1c(-c2ccccc2)c(C)c(=O)c2cc(NCC(C)C)ccc21.Cl [Compound A160] please.
Output: >5 µg/mL

Input: Report Cytotoxicity CC50 HeLa for CCn1c(-c2ccccn2)cc(=O)c2cc(C(C)C)ccc21 [Compound A296] please.
Output: 75 µg/mL
